Recorded protein stability index, one value per entry.
Measurement Protocol: protein stability index of a GFP-peptide fusion (GPS, HEK-293T) (PSI 1-6); higher = more stable;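 also: 24-mer peptide tiles fused after GFP, lentivirally expressed, FACS-sorted into six equal bins by GFP/DsRed ratio, decoded by Illumina sequencing, PSI is the read-weighted mean bin number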
Test Context: treatment: DMSO; c terminus: a fixed tail appended
The answer should be a number; do not append a unit.

> print(dat)
                           biosequence  endpoint.result
1  ETFAFQAEIAQLMSLIINTFYSNK [HSP90AB1]             2.84

Could you now look at the following sequence, please?
input: What value of measured protein stability index is listed for TTRHGEVGSALHRESFTSRQKTSG [C10orf62] ?
output: 4.75

---

Measurement Protocol: protein stability index of a GFP-peptide fusion (GPS, HEK-293T) (PSI 1-6); higher = more stable
Test Context: treatment: MLN4924 1 uM, 8 h; c terminus: a fixed tail appended
Endpoint Label: protein stability index
Give your answer as a number; write no unit.

> print(dat)
                          biosequence  endpoint.result
1   AAAYSPSEALLYALVHDHQAYAHY [ANKRD9]             2.27
2  NSHFSLNVKTLKDGKPFPELVLEQ [PCDHGC5]             3.76
3     DFKDFYPAIADLFAESLQCKVDCE [P3H4]             3.16

input: Can you share its protein stability index? I mean this sequence: FLCGRALTSDLYAPMVAGALARLG [SLC25A39]
output: 3.02

---

Measurement Protocol: protein stability index of a GFP-peptide fusion (GPS, HEK-293T) (PSI 1-6); higher = more stable
Test Context: treatment: MLN4924 1 uM, 8 h; c terminus: a fixed tail appended
Endpoint Label: protein stability index
The answer should be written as a number, with no unit following it.

Check out these entries, answers already filled in.
> print(dat)
                         biosequence  endpoint.result
1  YRQDDPSYRSFHSGGYGQDALGMD [CTNNB1]             4.03
2  RTSVGVAVLGGFLYAVGGQDGVSC [KLHL20]             2.45
3  DEEKKARRGRSPKGEFKDEEETVT [CLINT1]             5.57

input: Need protein stability index of LTSMRRLSSIKRDTNSIAKAIKAR [STX11] , thanks.
output: 3.64

input: Lookup WHDVQVSSAYVKTSEKLGEWNEKV [TPD52L2]
output: 3.8

input: # iterate: LTICYPEYAGSNTYEEAAAYIQCQ [GNAI1]
output: 2.43

---

Measurement Protocol: protein stability index of a GFP-peptide fusion (GPS, HEK-293T) (PSI 1-6); higher = more stable
Test Context: treatment: DMSO; c terminus: a fixed tail appended
So basically: protein stability index at 3 or higher? That is Satisfied. Lower than 3? That is Not satisfied.

> print(dat)
                          biosequence  group.label
1   DFMELGRSIPDTQLEQVIESQKAN [ACSBG2]    Satisfied
2  PTFKSFEERVETTVTSLKTKVGGT [TPD52L1]    Satisfied
3  NSHFSLNVKTLKDGKPFPELVLEQ [PCDHGC5]    Satisfied

input: Hi team, for VSVFIGVLIDLWKITKVMDVRLDR [CLPTM1] , is the recorded protein stability index at or above 3?
output: Satisfied

input: Can you handle LSEDYNKMTPVKNYQAHQSRVTMI [WDFY2] next?
output: Not satisfied

---

Measurement Protocol: protein stability index of a GFP-peptide fusion (GPS, HEK-293T) (PSI 1-6); higher = more stable
Test Context: treatment: DMSO; c terminus: a fixed tail appended
Listed sequences paired with reported protein stability index
Enter the number alone.

> print(dat)
                       biosequence  endpoint.result
1  HIGHVGWDPNTGFDLNNLDPELKN [WASL]             4.42

input: Any idea what protein stability index was measured for GGFGGGDGGLLSGNEKITMQNLND [KRT15] ?
output: 4.76

input: Same thing, different sequence: EYTCDVEKRSRGQVLFDKVCEHLN [EPB41L3]
output: 2.16

input: Repeat with KYPSHSFIGEESVAAGEKSILTDN [IMPA1]
output: 4.66

input: Try the sequence ALLWLSCSIALLRALATSNARAQQ [GNAS]
output: 3.21

input: For ASRVKLQHLPAQEQWDRLLVLYPT [PLEKHN1] then?
output: 2.21

input: Would you kindly repeat that for FSKSKELHPDRDPGNPSLHSRFVE [DNAJC4] ?
output: 3.91

---

Reported protein stability index by item:
Measurement Protocol: protein stability index of a GFP-peptide fusion (GPS, HEK-293T) (PSI 1-6); higher = more stable
Test Context: treatment: MLN4924 1 uM, 8 h; c terminus: a fixed tail appended
Please reply with the number alone, leaving off any unit.

input: Would you kindly share the measured protein stability index for LSFYDAERHCHLYTFHARFGEVRP [TRIM35] ?
output: 2.3

input: Ok, now EIDTPDKFGRTCLHAAAAGGNVEC [ANKRD44]
output: 4.37

input: Let us now turn to DFRVKYETELAMRQSVENDIHGLR [KRT18]
output: 3.68

---

Measurement Protocol: protein stability index of a GFP-peptide fusion (GPS, HEK-293T) (PSI 1-6); higher = more stable
Test Context: treatment: DMSO; c terminus: a fixed tail appended
Form field: protein stability index (one value per entry).
Reply briefly: the number, and no unit.

Previously resolved entries follow.
> print(dat)
                          biosequence  endpoint.result
1     LETFGHLLSIGPELPKPEVISQLE [ZNF8]             3.94
2  CMFCLYSFMPLVIKVTSATSVNLG [SLC35F2]             2.91
3     GRGGRDRFTAESYTVLGDTLIDGG [FSD1]             4.06
4   EWELLDPTQKALYNDVMQENYETV [ZNF75A]             4.77
5   RQNSAPARMLSSNERDSSEPGNFI [CDC25A]             5.54
6    KLCTAHMCSTLEHNCAHFCINIPG [MATN2]             2.22

input: Requested field: protein stability index. Item: LLADVKGARAALNEIESRHRELLR [STX11]
output: 3.03

input: Next up: QPIHLWQFLKELLLKPHSYGRFIR [SPDEF]
output: 2.69

input: Now this one: ELSGAPRCHTVPCAGSTALQEPGE [PXN]
output: 4.9

input: Then what about the sequence PVEYRSDVNSFVTECEPSELFQLQ [CDS1] ?
output: 4.5

input: One more sequence: RVEASHLTTSQERELGIRQRDEQL [FBF1]
output: 4.91

input: Input SAFADIIHSLKESGQLWLDAYLHQ [FADS1]
output: 2.16

input: And what about the sequence ALVRWWNGIGAVLDFTHPKARDWF [MYORG] ?
output: 2.59

input: And ESHATLTLAQAHFNNGEYAEAEAL [TTC32] ?
output: 5.19

input: Repeat for the following sequence: DQKVPYIFRDNQWVGFDDVESFKT [CHIT1]
output: 3.67

input: Same again, this time with QEILLAHRRFCELLPQEQRSVESS [CIB1]
output: 4.16

---

Measurement Protocol: protein stability index of a GFP-peptide fusion (GPS, HEK-293T) (PSI 1-6); higher = more stable
Test Context: treatment: DMSO; c terminus: a fixed tail appended
# cutoff 3 applies to protein stability index; >= gives true (1), < gives false (0)

> print(dat)
                           biosequence  group.label
1   YSHLAYNNYRLGGNPSTNSRVTAS [SMARCE1]     true (1)
2  AEGALEEVPLEVLRQRESKWLDML [TBC1D10A]     true (1)
3    PGMPPPVPRPGIPPMTQAQAVSAP [ZNF207]     true (1)
4    LNKKLKSYSLSRKKIVHYTCFDQR [CDC14A]    false (0)
5    GSEVYRMLREPAEPVAAEPKQSGS [PDLIM4]     true (1)

Turning to the following sequence.
input: Quick check: does VTSIPSVSDSLTWREFHYIQSKLG [STEAP1] have protein stability index greater than or equal to 3?
output: false (0)

---

Measurement Protocol: protein stability index of a GFP-peptide fusion (GPS, HEK-293T) (PSI 1-6); higher = more stable
Test Context: treatment: DMSO; c terminus: a fixed tail appended
protein stability index values, listed per item
Would you mind answering with just the numeric figure?

input: Param item = RSLQLRIQELELQAQIHGLPVPPT [TFE3] ; retrieve measured protein stability index.
output: 3.01

input: Let us now turn to EGHSIVGFAMYYFTYDPWIGKLLY [SAT1]
output: 3.07

input: Please answer likewise for DAALLEMENNHTVAITILQDDHDH [MTUS2]
output: 4.98

input: Can you check KKIEFGVVYSCVEGKMYTARKGKG [IMPA1] next?
output: 3.06

input: // query: ARGAGPPEPLRICPLHISVKEELD [TRIM35]
output: 4.59
